Target: MafG (EMSA construct) (Homo sapiens, UniProt O15525)
Assay: EMSA; homodimer; 16 h; EMSA: 20 mM Tris-HCl pH 7.2, 150 mM KCl, 10 mM DTT, 8 mg/ml BSA, 0.005% Tween 20, 50 ng/ml poly(dI-dC), 2.5% Ficoll; probe ~1.6 pM; 16 h (30 min for Jun-Fos); competitive assay at 4 C; gel at 4 C
Conditions: protein: recombinant; tags: N-terminal His6, removed by HRV 3C (GPHM left); chain copies: 2; label: 32P 5' end; text says 30 bp)
Measured metric: Kd (nM)
Please respond with the number in nM and leave the unit unwritten.

Prompt line: Consider the binder EMSA CsMBE probe (dsDNA) DNA 1: CCGCAGTCACAGTGACTCAGCAGAATCTGA DNA 2: CTCAGATTCTGCTGAGTCACTGTGACTGCG . State its measured Kd.
Response line: 0.69
